Target: T1, TNFR1 (Homo sapiens, UniProt P19438)
T1 chain: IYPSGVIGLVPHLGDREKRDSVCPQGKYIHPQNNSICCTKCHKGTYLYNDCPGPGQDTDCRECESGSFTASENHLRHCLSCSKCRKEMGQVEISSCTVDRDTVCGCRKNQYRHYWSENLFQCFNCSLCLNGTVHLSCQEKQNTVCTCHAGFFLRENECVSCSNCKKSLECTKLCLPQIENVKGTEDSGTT
Test: yeast display SC50
As shown below, each of these binders has a reported apparent Kd (screen) value.
Report only the number, with the unit nM understood.

Below are worked cases with known answers.
[
  {
    "Binder": "R92T (designed binder) MTLQELLREEALRRAEAEAFRYALELLAEKFPEQKEYLLDLAEEIESQIRSLSGVDVEDVRKFLDKEWAWVKELLAEHPAELAEVEAARAATLAELRAEVEAKVAA",
    "Unit string": "nM",
    "apparent Kd (screen)": 0.593
  },
  {
    "Binder": "A90G (designed binder) MTLQELLREEALRRAEAEAFRYALELLAEKFPEQKEYLLDLAEEIESQIRSLSGVDVEDVRKFLDKEWAWVKELLAEHPAELAEVEAARGARLAELRAEVEAKVAA",
    "Unit string": "nM",
    "apparent Kd (screen)": 0.653
  },
  {
    "Binder": "E33T (designed binder) MTLQELLREEALRRAEAEAFRYALELLAEKFPTQKEYLLDLAEEIESQIRSLSGVDVEDVRKFLDKEWAWVKELLAEHPAELAEVEAARAARLAELRAEVEAKVAA",
    "Unit string": "nM",
    "apparent Kd (screen)": 0.405
  },
  {
    "Binder": "A76S (designed binder) MTLQELLREEALRRAEAEAFRYALELLAEKFPEQKEYLLDLAEEIESQIRSLSGVDVEDVRKFLDKEWAWVKELLSEHPAELAEVEAARAARLAELRAEVEAKVAA",
    "Unit string": "nM",
    "apparent Kd (screen)": 0.49
  },
  {
    "Binder": "L82H (designed binder) MTLQELLREEALRRAEAEAFRYALELLAEKFPEQKEYLLDLAEEIESQIRSLSGVDVEDVRKFLDKEWAWVKELLAEHPAEHAEVEAARAARLAELRAEVEAKVAA",
    "Unit string": "nM",
    "apparent Kd (screen)": 0.593
  }
]

Query: Returns the measured apparent Kd (screen) for the input binder. Input: A17I (designed binder) MTLQELLREEALRRAEIEAFRYALELLAEKFPEQKEYLLDLAEEIESQIRSLSGVDVEDVRKFLDKEWAWVKELLAEHPAELAEVEAARAARLAELRAEVEAKVAA
Reply: 0.229

Query: Returns the measured apparent Kd (screen) for the input binder. Input: S47N (designed binder) MTLQELLREEALRRAEAEAFRYALELLAEKFPEQKEYLLDLAEEIENQIRSLSGVDVEDVRKFLDKEWAWVKELLAEHPAELAEVEAARAARLAELRAEVEAKVAA
Reply: 0.49

Query: Returns the measured apparent Kd (screen) for the input binder. Input: R97G (designed binder) MTLQELLREEALRRAEAEAFRYALELLAEKFPEQKEYLLDLAEEIESQIRSLSGVDVEDVRKFLDKEWAWVKELLAEHPAELAEVEAARAARLAELGAEVEAKVAA
Reply: 0.539

Where these numbers come from: paper PMC12416549
